Tested on: Fer (mouse);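 note: 11-residue human phosphosite peptides and single-mutation variants displayed on the E. coli surface, counted by deep sequencing, each peptide's frequency after selection divided by its frequency in the unselected input library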;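 note: frequency after pTyr selection over input frequency; kinase dosed for 20-30% of maximal phosphorylation in three min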
assay.procedure: phosphorylation enrichment, bacterial display (enrichment ratio); higher = better substrate or ligand; peptides without Tyr show the background
The following sequences are shown together with reported phosphorylation enrichment values.
Reply: number alone, nothing else.

Examples with answers:
{"query.sequence": "ERLWVYGMSSS [F8_Y1728_D1727V]", "study.system": "Fer (mouse)", "property.name": "phosphorylation enrichment", "observed": 0.539}
{"query.sequence": "KKHIPYRQHKS [CSNK1G2_Y206_E208Q]", "study.system": "Fer (mouse)", "property.name": "phosphorylation enrichment", "observed": 2.37}
{"query.sequence": "GTQGSYLLSRK [UGT3A1_Y123_C121G]", "study.system": "Fer (mouse)", "property.name": "phosphorylation enrichment", "observed": 0.392}
{"query.sequence": "TIQDAYMHITS [ADCY10_Y318_A313T]", "study.system": "Fer (mouse)", "property.name": "phosphorylation enrichment", "observed": 0.416}
{"query.sequence": "EHFSYYGMKAV [SLC15A2_Y61_R57H]", "study.system": "Fer (mouse)", "property.name": "phosphorylation enrichment", "observed": 0.607}

# input Give a short answer stating reported phosphorylation enrichment for KSRQIYDAYIM [GRK3_Y109_R104K] .
# output 12.4

# input Provide one value: measured phosphorylation enrichment of NLTLKYPIEHG [ACTA1_Y71_I66N]
# output 0.375
